# protocol_details: chemical genetic growth profiling, strain panel (AID 1159580);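 further: tested at 20 µM; growth read once vehicle control cultures reached saturation at 30 °C; 1 = growth at the plate median or of vehicle wells; lower values mean less growth of the strain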
# stated_conditions: S. cerevisiae deletion strains, growth OD, locus YOR184W, strain ser1, active compounds read low
Screen size: about 5,500 compounds; about 2,000 (36%) were called active. Inconclusive results (about 18%) are left out. Some of the results follow.
measured_metric: normalized growth

compound=CCOc1ccc(C(=O)c2cc(O)c(OC)c(OC)c2O)cc1 result="1.01 (inactive)"
compound=COc1ccc(C(=O)c2ccccc2)c(O)c1O result="0.996 (inactive)"
compound="COP(=O)(OC)OC(Br)C(Cl)(Cl)Br (stereo not given)" result="1.01 (inactive)"
compound="CO[C@H]1C[C@H](O[C@H]2[C@H](C)[C@@H](OC3O[C@H](C)C[C@H](N(C)C)[C@H]3OC(C)=O)[C@@H](C)C[C@]3(CO3)C(=O)[C@H](C)[C@@H](OC(C)=O)[C@@H](C)[C@@H](C)OC(=O)[C@@H]2C)O[C@@H](C)[C@@H]1OC(C)=O (stereo not given in full)" result="0.982 (inactive)"
compound=NC(=O)N1c2ccccc2C=Cc2ccccc21 result="0.981 (inactive)"
compound=Cc1cc(C(C)(C)C)cc(C)c1CC1=NCCN1 result="1 (inactive)"
compound="CC(=O)OCC(=O)[C@@]12OC3(CCCC3)O[C@@H]1CC1C3CCC4=CC(=O)C=C[C@]4(C)[C@@]3(F)[C@@H](O)C[C@@]12C (stereo not given in full)" result="0.983 (inactive)"
compound=COc1c2occc2c(OC)c2c(=O)cc(C)oc12 result="1.02 (inactive)"
compound="C[C@]12CCC(=O)C=C1CCC1C2[C@@H](O)C[C@@]2(C)C1CC[C@]2(O)C(=O)COC(=O)CCC(=O)O (stereo not given in full)" result="1.01 (inactive)"
compound=NC(N)=NC(N)=Nc1ccccc1 result="0.977 (inactive)"
compound="CC[C@H]1CN2CCc3cc(OC)c(OC)cc3C2C[C@@H]1CC1NCCc2cc(OC)c(OC)cc21 (stereo not given in full)" result="0.987 (inactive)"
compound=COc1cnc(NS(=O)(=O)c2ccc(N)cc2)nc1 result="0.985 (inactive)"
compound=CCC1(CC)C(=O)C=CNC1=O result="1.02 (inactive)"
compound=Cc1cc(=O)n(-c2ccccc2)n1C result="1.01 (inactive)"
compound=NC(=O)NO result="0.993 (inactive)"

###

# protocol_details: chemical genetic growth profiling, strain panel (AID 1159580);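 further: tested at 20 µM; growth read once vehicle control cultures reached saturation at 30 °C; 1 = growth at the plate median or of vehicle wells; lower values mean less growth of the strain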
# stated_conditions: S. cerevisiae deletion strains, growth OD, locus YOL147C, strain pex11, active compounds read low
Out of some 5,500 compounds screened, about 2,000 (36%) were called active. Not shown: some 18% with an inconclusive outcome. This is one part of the list.
In this section, each of the molecules is paired with its reported normalized growth.
measured_metric: normalized growth

molecule="OC(c1cc(C(F)(F)F)nc2c(C(F)(F)F)cccc12)C1CCCCN1 (centres undefined)" measured_metric="normalized growth" recorded_number=1.01
molecule=Cc1cc(C(C)(C)C)cc(C)c1CC1=NCCN1 measured_metric="normalized growth" recorded_number=0.998
molecule="CC(=O)Oc1cc2c(c(C)c1OC(C)=O)CC1OC13C2(C)CCC1(C)C2CC(C)(C(=O)O)CCC2(C)CCC13C (centres undefined)" measured_metric="normalized growth" recorded_number=1.04
molecule=CCOC([O-])=Nc1c[n+](N2CCOCC2)no1 measured_metric="normalized growth" recorded_number=0.978
molecule=CC1=C(O)C(=O)C=C2C1=CC=C1[C@@]2(C)CC[C@@]2(C)[C@@H]3C[C@](C)(C(=O)O)CC[C@]3(C)CC[C@]12C measured_metric="normalized growth" recorded_number=0.137
molecule="CO[C@H]1C[C@H](O[C@H]2[C@H](C)[C@@H](OC3O[C@H](C)C[C@H](N(C)C)[C@H]3OC(C)=O)[C@@H](C)C[C@]3(CO3)C(=O)[C@H](C)[C@@H](OC(C)=O)[C@@H](C)[C@@H](C)OC(=O)[C@@H]2C)O[C@@H](C)[C@@H]1OC(C)=O (some centres undefined)" measured_metric="normalized growth" recorded_number=0.992
molecule=O=C(O)c1cc(=O)c2c(Cl)cc(Cl)cc2[nH]1 measured_metric="normalized growth" recorded_number=1.02
molecule=O=C(CCBr)N1CCN(C(=O)CCBr)CC1 measured_metric="normalized growth" recorded_number=0.998
molecule=O=C1c2ccccc2C(=O)C1c1ccccc1 measured_metric="normalized growth" recorded_number=1.01
molecule="COc1cc2c(cc1OC)-c1c(oc3c4c(ccc3c1=O)OC(C(C)C)C4)CO2 (centres undefined)" measured_metric="normalized growth" recorded_number=0.973
molecule=O=C(O)c1cc([N+](=O)[O-])ccc1NCCCc1ccccc1 measured_metric="normalized growth" recorded_number=0.931
molecule="C1CCC(C(CC2CCCCN2)C2CCCCC2)CC1 (centres undefined)" measured_metric="normalized growth" recorded_number=0.941
molecule=CCOc1ccc(C(=O)c2cc(O)c(OC)c(OC)c2O)cc1 measured_metric="normalized growth" recorded_number=1.01
molecule=COc1ccc(C(=O)c2ccccc2)c(O)c1O measured_metric="normalized growth" recorded_number=0.963
